Sourced from patent US20210171576A1

TARGET_OR_TEST_SYSTEM: human mitochondrial CIpP (HsCIpP) (Homo sapiens)
Construct: made in house; host or cells: E. coli SG1146 (BL21(DE3) ΔclpP::cat)
TEST_PROTOCOL: Screen of ADEP analogs against HsCIpP: relative degradation (RD) index, casein-FITC degradation relative to E. coli CIpAP
Assay type: biochemical
Parameters: key: casein-FITC degradation by HsClpP relative to EcClpAP
TEST_CONTEXT: RD value at 25 μM of the ADEP analog; measure of ability to activate HsCIpP
Where a SMILES comes first, the peptide text is derived from it. Bridges are numbered along the chain shown (N, C = ends). [ ]: non-standard residue; d: D form. The star is where a group is joined. NMeA = CN[C@@H](C)C(=O)O; X5 = CCCCCC#CC(=O)*
ASSAY_ENDPOINT: Hs RD25
Just the number, please, no unit after it.

CCCCCC#CC(=O)N[C@@H](Cc1ccccc1)C(=O)N[C@H]1COC(=O)[C@@H]2CCCN2C(=O)[C@H](C)NC(=O)[C@H](C)N(C)C(=O)[C@@H]2CCCN2C1=O [ADEP-27] (X5-FSP[NMeA]AP; ester 2-C)
0.64

Return reported Hs RD25. Input compound: CCCC/C=C/C(=O)N[C@H](Cc1ccccc1)C(=O)N[C@H]1COC(=O)[C@@H]2CCCN2C(=O)[C@H](C)NC(=O)[C@@H]2CCCCN2C(=O)[C@@H]2CCCN2C1=O [ADEP-02] 1.08

Return reported Hs RD25. Input compound: CCCC/C=C/C(=O)N[C@@H](Cc1cc(F)cc(F)c1)C(=O)N[C@H]1COC(=O)[C@@H]2C[C@@H](C)CN2C(=O)[C@H](C)NC(=O)[C@@H]2CCCN2C(=O)[C@@H]2CCCN2C1=O [ADEP-15] 1.05

* * *

TARGET_OR_TEST_SYSTEM: human mitochondrial CIpP (HsCIpP) (Homo sapiens, UniProt Q16740)
Construct: made in house; host or cells: E. coli SG1146 (BL21(DE3) ΔclpP::cat)
Sequence (Q16740 57-277): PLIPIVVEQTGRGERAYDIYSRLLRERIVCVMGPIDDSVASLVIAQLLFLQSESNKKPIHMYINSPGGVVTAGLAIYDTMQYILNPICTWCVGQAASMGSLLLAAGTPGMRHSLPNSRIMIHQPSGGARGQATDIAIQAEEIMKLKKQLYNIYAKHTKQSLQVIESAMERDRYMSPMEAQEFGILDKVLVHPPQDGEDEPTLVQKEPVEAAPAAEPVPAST
TEST_PROTOCOL: Screen of ADEP analogs against HsCIpP: relative degradation (RD) index, casein-FITC degradation relative to E. coli CIpAP
Assay type: biochemical
Design: key: casein-FITC degradation by HsClpP relative to EcClpAP
TEST_CONTEXT: RD value at 1 μM of the ADEP analog
Where a SMILES comes first, the peptide text is derived from it. Bridges are numbered along the chain shown (N, C = ends). [ ]: non-standard residue; d: D form. The star is where a group is joined. Phe(3,5-F2) = N[C@@H](Cc1cc(F)cc(F)c1)C(=O)O; Pro(4R-Me) = C[C@H]1CN[C@H](C(=O)O)C1; Heptenoyl(2E) = CCCC/C=C/C(=O)*; Pip = O=C(O)[C@@H]1CCCCN1; Abu = CC[C@H](N)C(=O)O
ASSAY_ENDPOINT: Hs RD1

Supply Hs RD1 measured with human mitochondrial CIpP (HsCIpP) (Homo sapiens, UniProt Q16740) for CCCC/C=C/C(=O)N[C@@H](Cc1cc(F)cc(F)c1)C(=O)N[C@H]1COC(=O)[C@@H]2C[C@@H](C)CN2C(=O)[C@H](CC)NC(=O)[C@@H]2CCCCN2C(=O)[C@@H]2CCCN2C1=O [ADEP-25] ({Heptenoyl(2E)}-[Phe(3,5-F2)]SP[Pip][Abu][Pro(4R-Me)]; ester 2-C) . 0.61
